Test system: ALL-PO
Test: selective drug sensitivity score (sDSS, relative to normal bone marrow) (sDSS (score)); higher = more potent and effective on the cell line relative to normal bone marrow cells;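 further: ALL cell lines in 384-well plates, five doses spanning 10,000-fold, each plate scaled between vehicle and 100 µmol/L benzalkonium chloride controls, sDSS an adapted area-under-curve metric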
Conditions: 72 h
Classification field: enter Condition met for selective drug sensitivity score values not below 4, Condition not met for values below it.

Recorded results for 5 compounds are shown here.
compound	category label
CC(C)Cn1cnc2c(N)nc3ccccc3c21 [Imiquimod] (top concentration 2500 nM)	Condition not met
Nc1ccn([C@@H]2O[C@H](CO)[C@@H](O)[C@@H]2O)c(=O)n1 [Cytarabine] (top concentration 10000 nM)	Condition met
Cn1nccc1Nc1nccc(-c2ccn([C@H](CO)c3ccc(Cl)c(F)c3)c(=O)c2)n1 [Ravoxertinib] (top concentration 10000 nM)	Condition not met
C[C@]12CC[C@@H]3c4ccc(O)cc4C[C@@H](CCCCCCCCC[S+]([O-])CCCC(F)(F)C(F)(F)F)[C@H]3[C@@H]1CC[C@@H]2O (stereo partly specified) [Fulvestrant] (top concentration 1000 nM)	Condition not met
O=C(NC1CCNCC1)c1n[nH]cc1NC(=O)c1c(Cl)cccc1Cl [AT7519] (top concentration 10000 nM)	Condition not met

Kindly review the next compound as well.
Could you please find out whether COC(=O)c1ccc([C@H]2c3[nH]c4ccccc4c3C[C@H](C(=O)OC)N2C(=O)CCl)cc1 [RSL3] (top concentration 10000 nM) has selective drug sensitivity score that meets 4 or exceeds it?
Condition not met

====

System: MHH-CALL-3
Test: selective drug sensitivity score (sDSS, relative to normal bone marrow) (sDSS (score)); higher = more potent and effective on the cell line relative to normal bone marrow cells
Conditions: 72 h
Classification field: enter YES for selective drug sensitivity score values not below 0, NO for values below it.

                                   molecule  category_label
0  C[C@]1(c2nc3c(C(N)=O)cccc3[nH]2)CCCN1 [Veliparib] (top concentration 10000 nM)             YES
1  CCN(CC)CCCC(C)Nc1ccnc2cc(Cl)ccc12 (configuration not stated) [Chloroquine] (top concentration 100000 nM)              NO
2  Cc1noc2c1-c1ccccc1C(c1ccc(Cl)cc1)=N[C@H]2CC(N)=O [CPI-0610] (top concentration 10000 nM)             YES
3  CN1CC[C@H](c2c(O)cc(O)c3c(=O)cc(-c4ccccc4Cl)oc23)[C@H](O)C1 [Alvocidib] (top concentration 10000 nM)              NO

Could you please find out whether O=C(Nc1cccnc1)N1CCC(Cc2cccc(Oc3ccc(C(F)(F)F)cn3)c2)CC1 [PF-3845] (top concentration 10000 nM) has selective drug sensitivity score that meets 0 or exceeds it?
NO

====

Test system: MOLT-4
Assay: selective drug sensitivity score (sDSS, relative to normal bone marrow) (sDSS (score)); higher = more potent and effective on the cell line relative to normal bone marrow cells
Conditions: 72 h
Consider the following molecules and their measured selective drug sensitivity score readings.
Output spec: single numeric token, no unit.

Take a look at these entries with their results.
In [3]: df
Out[3]:
                                   molecule  measured
0  Cc1sc2c(c1C)C(c1ccc(Cl)cc1)=N[C@@H](CC(=O)Nc1ccc(O)cc1)c1nnc(C)n1-2 [Birabresib] (top concentration 10000 nM)     -4.68
1  COc1cc(Nc2ncc(F)c(Nc3ccc4c(n3)N(COP(=O)(O)O)C(=O)C(C)(C)O4)n2)cc(OC)c1OC [Fostamatinib] (top concentration 2500 nM)     -2.04
2  Nc1ncn([C@@H]2O[C@H](CO)[C@@H](O)[C@H]2O)c(=O)n1 [Azacitidine] (top concentration 10000 nM)      4.94
3  Nc1ccn([C@@H]2O[C@H](CO)[C@@H](O)[C@@H]2O)c(=O)n1 [Cytarabine] (top concentration 10000 nM)        19
4  CNC(=O)c1ccc2cc([C@@]3(O)CCn4cncc43)ccc2c1 [Orteronel] (top concentration 10000 nM)         0

Provide the documented selective drug sensitivity score with MOLT-4 as the system for O[C@H]1CC[C@H](Nc2ncc3nc(Nc4c(F)cc(F)cc4F)n([C@H]4CCOC4)c3n2)CC1 [Tanzisertib] (top concentration 10000 nM)
0

====

Tested on: MOLT-14
Assay: selective drug sensitivity score (sDSS, relative to normal bone marrow) (sDSS (score)); higher = more potent and effective on the cell line relative to normal bone marrow cells
Details: 72 h
Classification field: enter class 1 for selective drug sensitivity score values not below -0.1, class 0 for values below it.

Recorded results for 8 compounds are shown here.
In [3]: df
Out[3]:
                                   compound  category_label
0  Cc1noc2c1-c1ccccc1C(c1ccc(Cl)cc1)=N[C@H]2CC(N)=O [CPI-0610] (top concentration 10000 nM)         class 1
1  COc1cc2c(Oc3ccc(NC(=O)C4(C(=O)Nc5ccc(F)cc5)CC4)cc3F)ccnc2cc1OCCCN1CCOCC1 [Foretinib] (top concentration 1000 nM)         class 1
2  CCCN(CCC)C(=O)C1=Cc2ccc(-c3ccc(C(=O)N4CCCC4)cc3)cc2N=C(N)C1 [Motolimod] (top concentration 10000 nM)         class 0
3  CS(=O)(=O)CCNCc1ccc(-c2ccc3ncnc(Nc4ccc(OCc5cccc(F)c5)c(Cl)c4)c3c2)o1 [Lapatinib] (top concentration 1000 nM)         class 1
4  NCC(=O)Nc1ccc(-n2nc(C(F)(F)F)cc2-c2ccc3c(ccc4ccccc43)c2)cc1 (top concentration 25000 nM)         class 1
5  CCNC(=O)CCC/C=C\C[C@@H]1[C@@H](/C=C/[C@@H](O)CCc2ccccc2)[C@H](O)C[C@@H]1O [Bimatoprost] (top concentration 5500 nM)         class 1
6  CCN(CC)CCCC(C)Nc1ccnc2cc(Cl)ccc12 (stereo unspecified) [Chloroquine] (top concentration 100000 nM)         class 0
7  CNC(=O)c1ccc2cc([C@@]3(O)CCn4cncc43)ccc2c1 [Orteronel] (top concentration 10000 nM)         class 1

Could you please find out whether CC(C)(O)CC(=O)NCCn1ccc2ncnc(Nc3ccc(Oc4cccc(C(F)(F)F)c4)c(Cl)c3)c21 [TAK-285] (top concentration 2500 nM) has selective drug sensitivity score that meets -0.1 or exceeds it?
class 1

Another compound: Nc1ncn([C@@H]2O[C@H](CO)[C@@H](O)[C@H]2O)c(=O)n1 [Azacitidine] (top concentration 10000 nM)
class 1

Another compound: Cc1sc2c(c1C)C(c1ccc(Cl)cc1)=N[C@@H](CC(=O)Nc1ccc(O)cc1)c1nnc(C)n1-2 [Birabresib] (top concentration 10000 nM)
class 1

Another compound: CCn1c(C(=O)N(C2CC2)C2CC2)cc2c3c(ncn3C)c(Nc3cc(C)n(C)n3)nc21 (top concentration 10000 nM)
class 0

====

Consider the following compounds and their measured selective drug sensitivity score readings.
System: RCH-ACV
Test: selective drug sensitivity score (sDSS, relative to normal bone marrow) (sDSS (score)); higher = more potent and effective on the cell line relative to normal bone marrow cells
Conditions: 72 h
Output spec: single numeric token, no unit.

Take a look at these entries with their results.
compound	selective drug sensitivity score
Cc1ccc(F)c(NC(=O)Nc2ccc(-c3cccc4[nH]nc(N)c34)cc2)c1 [Linifanib] (top concentration 1000 nM)	-1.12
O[C@H]1CC[C@H](Nc2ncc3nc(Nc4c(F)cc(F)cc4F)n([C@H]4CCOC4)c3n2)CC1 [Tanzisertib] (top concentration 10000 nM)	0
CCc1cc2c(cc1N1CCC(N3CCOCC3)CC1)C(C)(C)c1[nH]c3cc(C#N)ccc3c1C2=O [Alectinib] (top concentration 1000 nM)	4.98
Cc1nc(C(=O)NCC(=O)O)c(O)c2ccc(Oc3ccccc3)cc12 [Roxadustat] (top concentration 10000 nM)	-1.12
CC(C)(C)c1cnc(CSc2cnc(NC(=O)C3CCNCC3)s2)o1 [SNS-032] (top concentration 10000 nM)	1.26

Kindly review the next compound as well.
Provide the documented selective drug sensitivity score with RCH-ACV as the system for CC(C)c1c(C(=O)Nc2ccccc2)c(-c2ccccc2)c(-c2ccc(F)cc2)n1CC[C@@H](O)C[C@@H](O)CC(=O)O [Atorvastatin] (top concentration 10000 nM)
-1

====

Tested on: SEM cells
Assay: selective drug sensitivity score (sDSS, relative to normal bone marrow) (sDSS (score)); higher = more potent and effective on the cell line relative to normal bone marrow cells
Conditions: 72 h
Consider the following compounds and their measured selective drug sensitivity score readings.
Output spec: single numeric token, no unit.

compound	selective drug sensitivity score
O=C1c2c(O)ccc(O)c2C(=O)c2c(NCCNCCO)ccc(NCCNCCO)c21 [Mitoxantrone] (top concentration 1000 nM)	8.04
COc1ccccc1S(=O)(=O)Nc1ccc2c(c1)CN(C)C(=O)N2 [PFI-1] (top concentration 30000 nM)	4.7
CN(C)CCOc1ccc(/C(=C(/CCCl)c2ccccc2)c2ccccc2)cc1 [Toremifene] (top concentration 10000 nM)	0.48
CCCN(CCC)C(=O)C1=Cc2ccc(-c3ccc(C(=O)N4CCCC4)cc3)cc2N=C(N)C1 [Motolimod] (top concentration 10000 nM)	-3.38
N#CC(c1ccnc(OCc2ccc(CN3CCOCC3)cc2)n1)c1nc2ccccc2s1 (configuration not stated) [Bentamapimod] (top concentration 10000 nM)	3.24
Nc1ccn([C@@H]2O[C@H](CO)[C@@H](O)[C@@H]2O)c(=O)n1 [Cytarabine] (top concentration 10000 nM)	15.9

Kindly review the next compound as well.
Fill blank: measured selective drug sensitivity score of the compound Cn1nnc2c(C(N)=O)ncn2c1=O [Temozolomide] (top concentration 100000 nM) is ____.
6.46

src = the supplement of paper PMC8967900
